target: T1, cynomolgus antigen (cynomolgus); assay: affinity-ranking ELISA: cynomolgus antigen coated on the plate, normalized scFv periplasmic extract in 3-fold dilutions from 100 nM, anti-c-myc-HRP, OD450
T1 construct: also called cyno antigen; cynomolgus monkey C5a

[
  {
    "binder": "18F5 (scFv, V domains shown, Combination mutant scFv) VH: QVQLVQSGAEVKKPGSSVKVSCKASGYTFTDHIIHWMRQAPGQGLEWMGYIYPREGFTNYNENFKGRVTITADKSTSTAYMELSSLRSEDTAVYYCARERNLEYFDYWGQGTTVTVSS VL: DIVLTQSPASLAVSPGQRATITCKASQSVDFEGFNYMNWYQQKPGQPPKLLIYAASNLDSGVPARFSGSGSGTDFTLTINPVEAEDTANYYCQQSVEDPHTFGGGTKVEIK",
    "EC50 (read off the curve)": "~8 nM"
  },
  {
    "binder": "13B7 (scFv, V domains shown, Combination mutant scFv) VH: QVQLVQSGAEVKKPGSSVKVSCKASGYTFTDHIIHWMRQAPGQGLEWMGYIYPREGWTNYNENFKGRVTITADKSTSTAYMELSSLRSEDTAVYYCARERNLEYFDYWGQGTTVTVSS VL: DIVLTQSPASLAVSPGQRATITCKASQSVDYEGFNYMNWYQQKPGQPPKLLIYAASNLDSGVPARFSGSGSGTDFTLTINPVEAEDTANYYCQQSVEDPHTFGGGTKVEIK",
    "EC50 (read off the curve)": "~6 nM"
  },
  {
    "binder": "16F10 (scFv, V domains shown, Combination mutant scFv) VH: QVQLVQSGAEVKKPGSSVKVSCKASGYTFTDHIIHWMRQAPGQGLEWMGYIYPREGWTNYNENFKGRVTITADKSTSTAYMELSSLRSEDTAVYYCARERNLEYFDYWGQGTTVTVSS VL: DIVLTQSPASLAVSPGQRATITCKASQSVDFEGFNYMNWYQQKPGQPPKLLIYAASNLDSGVPARFSGSGSGTDFTLTINPVEAEDTANYYCQQSVEDPHTFGGGTKVEIK",
    "EC50 (read off the curve)": "~4 nM"
  },
  {
    "binder": "16D10 scFv (scFv, V domains shown) VH: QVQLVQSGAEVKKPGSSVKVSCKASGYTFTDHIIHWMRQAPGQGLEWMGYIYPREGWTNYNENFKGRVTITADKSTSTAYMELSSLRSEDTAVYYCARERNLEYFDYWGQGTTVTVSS VL: DIVLTQSPASLAVSPGQRATITCKASQSVDYEGFNYMNWYQQKPGQPPKLLIYAASNLDSGVPARFSGSGSGTDFTLTINPVEAEDTANYYCQQSNEDPYTFGGGTKVEIK",
    "EC50 (read off the curve)": "~20 nM"
  },
  {
    "binder": "13B9 (scFv, V domains shown, Combination mutant scFv) VH: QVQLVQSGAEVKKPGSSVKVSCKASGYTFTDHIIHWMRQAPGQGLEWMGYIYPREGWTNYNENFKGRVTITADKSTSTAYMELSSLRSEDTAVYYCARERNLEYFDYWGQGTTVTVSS VL: DIVLTQSPASLAVSPGQRATITCKASQSVDFEGFNYMNWYQQKPGQPPKLLIYAASNLDSGVPARFSGSGSGTDFTLTINPVEAEDTANYYCQQSNEDPHTFGGGTKVEIK",
    "EC50 (read off the curve)": "~10 nM"
  }
]

Where these numbers come from: patent US20240376189A1
